Assay: Inhibition of Escherichia coli DNA gyrase B ATPase activity
pIC50: −log10 of the molar value.
QUANTITY: pIC50

Problem: Answer with the recorded pIC50 for the molecule listed here: `Cc1c(O)cc(O)c2c1C(=O)OC[C@H](NC(=O)[C@@H]1[C@H](O)CCN1C(=O)[C@H](C)N)C(=O)N[C@H](C(=O)N[C@@H](C)C(=O)O)CSC2`
Result: 8.82

Problem: Answer with the recorded pIC50 for the molecule listed here: `Cc1cc(NS(=O)(=O)c2ccc(Nc3nc(-c4ccc(O)cc4O)cs3)cc2)no1`
Result: 4.34

Problem: Answer with the recorded pIC50 for the molecule listed here: `O=C(O)c1cc(Nc2nc(-c3ccc(O)cc3O)cs2)ccc1O`
Result: 4.44

Problem: Answer with the recorded pIC50 for the molecule listed here: `O=C(O)c1ccc(Nc2nc(-c3ccc(O)cc3O)cs2)cc1O`
Result: 4.41

(P) COC(=O)c1c(Br)c(OC)cc(O)c1CSC[C@H](Nc1nc(-c2ccc([N+](=O)[O-])cc2)cs1)C(=O)OC
(Q) O=C(O)c1ccc(Nc2nc(-c3ccc(O)cc3O)cs2)cc1
Problem: Choose between P and Q : whose measured pIC50 value is numerically larger? Selection: enter the item's label.
Result: P
